HCT-15 % Kill listing for selected compounds.
tested on: HCT15 cells; test: cells; format: cell-based, human; conditions: HCT15 cells, without Verapamil, maximum % cell killing
Give the number; % is assumed, so skip it.

Take a look at these entries with their results.
| smiles_representation | assay_metric | output_unit | result_number |
| --- | --- | --- | --- |
| C#CCCCON(C(=O)[C@@H](NC(=O)[C@H]1CCCCN1C)[C@@H](C)CC)[C@H](C[C@@H](OC(C)=O)c1nc(C(=O)N[C@@H](Cc2ccc(F)cc2)CC(C)(C)C(=O)O)cs1)C(C)C | HCT-15 % Kill | % | 99.7 |
| CCCCCON(C(=O)[C@@H](NC(=O)[C@H]1CCCCN1C)[C@@H](C)CC)[C@H](C[C@@H](OC(C)=O)c1nc(C(=O)N[C@@H](Cc2ccc(N)cc2)CC(C)(C)C(=O)O)cs1)C(C)C | HCT-15 % Kill | % | 98.8 |
| [2H]c1cc(C[C@@H](CC(C)(C)C(=O)O)NC(=O)c2csc([C@@H](C[C@H](C(C)C)N(CCCCCC)C(=O)[C@@H](NC(=O)[C@H]3CCCCN3C)[C@@H](C)CC)OC(C)=O)n2)cc([2H])c1N | HCT-15 % Kill | % | 99.1 |
| CCCCCCON(C(=O)[C@@H](NC(=O)[C@H]1CCCCN1C)[C@@H](C)CC)[C@H](C[C@@H](OC(=O)NC)c1nc(C(=O)N[C@@H](Cc2ccc(O)cc2)C[C@H](C)C(=O)O)cs1)C(C)C | HCT-15 % Kill | % | 97 |

Let us move to another entry and its HCT-15 % Kill.
### Prompt Recall the recorded HCT-15 % Kill for CCCCCCN(C(=O)[C@@H](NC(=O)[C@H]1CCCCN1C)[C@@H](C)CC)[C@H](C[C@@H](OC(C)=O)c1nc(C(=O)N[C@@H](Cc2ccc(O)c(N)c2)CC(C)(C)C(=O)O)cs1)C(C)C with HCT15 cells and state it.
### Response 95.9
